Assay comment: Log P by HPLC on reversed phase columns (EEC directive 79/831 Annex V.A8)
Format: physicochemical
Measurement context: Table 1; method [a]: LC-UV, acidic range, 0.1% formic acid in water and acetonitrile as eluent
Reported property: LogP

>>> df
                                   compound  obs_value
0  Clc1cc(Oc2ccc(Br)cc2)ccc1C1(Cn2cncc2Br)OCCO1 [Compound I-21]   3.48^[a]
1  C#Cc1cncn1CC1(c2ccc(Oc3ccc(Cl)cc3)cc2Cl)OCC(C)O1 (racemic) [Compound I-26]  3.15 ^[a]
2  Clc1cc(Oc2ccc(I)cc2)ccc1C1(Cn2cncc2Br)OCCO1 [Compound I-08]   3.76^[a]

* * *

Assay comment: Log P by HPLC on reversed phase columns (EEC directive 79/831 Annex V.A8)
Format: physicochemical
Measurement context: Table 2 (I-RP compounds); method [a]: LC-UV, acidic range, 0.1% formic acid in water and acetonitrile as eluent
Reported property: chromatographic logP

In [3]: df
Out[3]:
                         chemical_structure     reported_property  obs_value
0  C[Si](C)(C)C#Cc1cncn1CC1(c2ccc(Oc3ccc(C(F)(F)F)cc3)cc2Cl)OCCO1  chromatographic logP       4.59

* * *

Assay comment: Log P by HPLC on reversed phase columns (EEC directive 79/831 Annex V.A8)
Type: physicochemical
Measurement context: reversed phase HPLC columns; Table 1; method [a]: LC-UV, acidic range, 0.1% formic acid in water and acetonitrile as eluent
Reported property: chromatographic logP

>>> df
                                   compound  obs_value
0  Fc1cncn1CC1(c2ccc(Oc3ccc(Cl)cc3)nc2C(F)(F)F)OCCO1       2.42
1  FC(F)(F)c1cc(Oc2ccc(Cl)cc2)ccc1C1(Cn2cncc2Cl)OCCO1       3.75
2  CC1COC(Cn2cncc2C#N)(c2ccc(Oc3ccc(C(F)(F)F)cc3)cc2Cl)O1 (stereo not shown)       4.08
3  Clc1ccc(Oc2ccc(C3(Cn4cncc4Cl)OCCO3)c(Cl)c2)cc1       3.29
4  Clc1ccc(Oc2ccc(C3(Cn4cncc4Br)OCCO3)c(Cl)c2)cc1       3.35
5  Fc1cncn1CC1(c2ccc(Oc3ccc(C(F)(F)F)nc3)nc2C(F)(F)F)OCCO1       2.53
6  CC1COC(Cn2cncc2F)(c2ccc(Oc3ccc(Cl)cc3)cc2Cl)O1 (stereo not shown)       3.06

* * *

Assay comment: Log P by HPLC on reversed phase columns (EEC directive 79/831 Annex V.A8)
Type: physicochemical
Measurement context: Table 2 (I-RP compounds); method [a]: LC-UV, acidic range, 0.1% formic acid in water and acetonitrile as eluent
Reported property: LogP

In [3]: df
Out[3]:
                                   compound  obs_value
0  C[Si](C)(C)C#Cc1cncn1CC1(c2ccc(Oc3ccc(Cl)cc3)cc2C(F)(F)F)OCCO1 [I-RP-04]  4.67 ^[a]
1  CC1COC(Cn2cncc2C#C[Si](C)(C)C)(c2ccc(Oc3ccc(Cl)cc3)cc2Cl)O1 (racemic) [I-RP-03]  4.90 ^[a]
2  C[Si](C)(C)C#Cc1cncn1CC1(c2ccc(Oc3ccc(Cl)cc3)cc2Cl)OCCO1 [I-RP-01]  4.54 ^[a]
3  C[Si](C)(C)C#Cc1ccc(Oc2ccc(C3(Cn4cncc4C#C[Si](C)(C)C)OCCO3)c(Cl)c2)cc1 [I-RP-02]  6.17 ^[a]

* * *

Assay comment: Log P by HPLC on reversed phase columns (EEC directive 79/831 Annex V.A8)
Format: physicochemical
Measurement context: Table 1; method [a]: LC-UV, acidic range, 0.1% formic acid in water and acetonitrile as eluent
Quick reference for LogP among some compounds
Reported property: LogP

In [3]: df
Out[3]:
                                   compound  obs_value
0  CC1COC(Cn2cncc2Br)(c2ccc(Oc3ccc(Cl)cc3)cc2Cl)O1 (racemic)   3.68^[a]
1  N#Cc1cncn1CC1(c2ccc(Oc3ccc(Cl)cc3)cc2C(F)(F)F)OCCO1  4.03 ^[a]
2  FC(F)(F)c1cc(Oc2ccc(Cl)cc2)ccc1C1(Cn2cncc2Br)OCCO1  3.58 ^[a]
3  CC1COC(Cn2cncc2Cl)(c2ccc(Oc3ccc(Cl)cc3)cc2Cl)O1 (mixture of isomers)   3.64^[a]
4  Clc1cc(Oc2ccc(I)cc2)ccc1C1(Cn2cncc2Cl)OCCO1   3.82^[a]
5  Fc1cncn1CC1(c2ccc(Oc3ccc(Br)cc3)nc2C(F)(F)F)OCCO1   2.78^[a]
6  FC(F)(F)c1cc(Oc2ccc(Cl)nc2)ccc1C1(Cn2cncc2Cl)OCCO1   2.58^[a]
7  Clc1ccc(Oc2ccc(C3(Cn4cncc4Cl)OCCO3)c(Cl)c2)cn1   2.42^[a]

* * *

Assay comment: Log P by HPLC on reversed phase columns (EEC directive 79/831 Annex V.A8)
Type: physicochemical
Measurement context: Table 1; method [a]: LC-UV, acidic range, 0.1% formic acid in water and acetonitrile as eluent
Quick reference for LogP among some molecules
Reported property: LogP

>>> print(df.to_string())
                         chemical_structure  reported_property  obs_value
0  Fc1cncn1CC1(c2ccc(Oc3ccc(Cl)cc3)cc2Cl)OCCO1               LogP   2.88^[a]
1  Fc1cncn1CC1(c2ccc(Oc3ccc(Br)nc3)nc2C(F)(F)F)OCCO1               LogP   2.17^[a]
2  N#Cc1cncn1CC1(c2ccc(Oc3ccc(Cl)cc3)cc2Cl)OCCO1               LogP  3.78 ^[a]
3  N#Cc1cncn1CC1(c2ccc(Oc3ccc(C(F)(F)F)cc3)cc2Cl)OCCO1               LogP  3.92 ^[a]
4  C#Cc1ccc(Oc2ccc(C3(Cn4cncc4C#C)OCCO3)c(Cl)c2)cc1               LogP  2.76 ^[a]
5  Clc1cc(Oc2ccc(Br)cc2)ccc1C1(Cn2cncc2Cl)OCCO1               LogP   3.53^[a]
6  Clc1ccc(Oc2ccc(C3(Cn4cncc4Cl)OCCO3)c(Cl)c2)nc1               LogP   2.66^[a]
7  FC(F)(F)c1cc(Oc2ccc(Br)cc2)ccc1C1(Cn2cncc2Cl)OCCO1               LogP   3.77^[a]

* * *

Assay comment: Log P by HPLC on reversed phase columns (EEC directive 79/831 Annex V.A8)
Assay type: physicochemical
Measurement context: Table 1; method [a]: LC-UV, acidic range, 0.1% formic acid in water and acetonitrile as eluent
Procedure: Measurement of Log P values was performed according to EEC directive 79/831 Annex V.A8 by HPLC (High Performance Liquid Chromatography) on reversed phase columns with the following methods: • ^[a] Log P value is determined by measurement of LC-UV, in an acidic range, with 0.1% formic acid in water and acetonitrile as eluent (linear gradient from 10% acetonitrile to 95% acetonitrile). • ^[b] […]
Reported property: chromatographic logP

In [3]: df
Out[3]:
                         chemical_structure  obs_value
0  C#Cc1cncn1CC1(c2ccc(Oc3ccc(C(F)(F)F)cc3)cc2Cl)OCCO1       3.04

* * *

Assay comment: Log P by HPLC on reversed phase columns (EEC directive 79/831 Annex V.A8)
Assay type: physicochemical
Measurement context: Table 1; method [a]: LC-UV, acidic range, 0.1% formic acid in water and acetonitrile as eluent
Quick reference for LogP among some molecules
Reported property: LogP

In [3]: df
Out[3]:
                                   molecule  obs_value
0  FC(F)(F)c1cncn1CC1(c2ccc(Oc3ccc(Cl)cc3)cc2Cl)OCCO1   4.64^[a]
1  C[Si](C)(C)C#Cc1ccc(Oc2ccc(C3(Cn4cncc4Br)OCCO3)c(Cl)c2)cc1  4.98 ^[a]
2  C#Cc1cncn1CC1(c2ccc(Oc3ccc(Cl)cc3)cc2C(F)(F)F)OCCO1  3.13 ^[a]
3  CC1COC(Cn2cncc2Br)(c2ccc(Oc3ccc(C(F)(F)F)cc3)cc2Cl)O1 (racemic)  3.85 ^[a]
4  FC(F)(F)c1ccc(Oc2ccc(C3(Cn4cncc4Br)OCCO3)c(Cl)c2)cc1  3.44 ^[a]
5  Fc1nc(Oc2ccc(Cl)cc2)ccc1C1(Cn2cncc2F)OCCO1   2.34^[a]
6  Fc1cncn1CC1(c2ccc(Oc3ccc(Cl)cc3)cc2C(F)(F)F)OCCO1   3.06^[a]
7  C#Cc1cncn1CC1(c2ccc(Oc3ccc(Cl)cc3)cc2Cl)OCCO1   2.94^[a]
